- TARGET_OR_SYSTEM: Toll-like receptor 7 (Homo sapiens)
- Sequence (Q9NYK1 whole entry): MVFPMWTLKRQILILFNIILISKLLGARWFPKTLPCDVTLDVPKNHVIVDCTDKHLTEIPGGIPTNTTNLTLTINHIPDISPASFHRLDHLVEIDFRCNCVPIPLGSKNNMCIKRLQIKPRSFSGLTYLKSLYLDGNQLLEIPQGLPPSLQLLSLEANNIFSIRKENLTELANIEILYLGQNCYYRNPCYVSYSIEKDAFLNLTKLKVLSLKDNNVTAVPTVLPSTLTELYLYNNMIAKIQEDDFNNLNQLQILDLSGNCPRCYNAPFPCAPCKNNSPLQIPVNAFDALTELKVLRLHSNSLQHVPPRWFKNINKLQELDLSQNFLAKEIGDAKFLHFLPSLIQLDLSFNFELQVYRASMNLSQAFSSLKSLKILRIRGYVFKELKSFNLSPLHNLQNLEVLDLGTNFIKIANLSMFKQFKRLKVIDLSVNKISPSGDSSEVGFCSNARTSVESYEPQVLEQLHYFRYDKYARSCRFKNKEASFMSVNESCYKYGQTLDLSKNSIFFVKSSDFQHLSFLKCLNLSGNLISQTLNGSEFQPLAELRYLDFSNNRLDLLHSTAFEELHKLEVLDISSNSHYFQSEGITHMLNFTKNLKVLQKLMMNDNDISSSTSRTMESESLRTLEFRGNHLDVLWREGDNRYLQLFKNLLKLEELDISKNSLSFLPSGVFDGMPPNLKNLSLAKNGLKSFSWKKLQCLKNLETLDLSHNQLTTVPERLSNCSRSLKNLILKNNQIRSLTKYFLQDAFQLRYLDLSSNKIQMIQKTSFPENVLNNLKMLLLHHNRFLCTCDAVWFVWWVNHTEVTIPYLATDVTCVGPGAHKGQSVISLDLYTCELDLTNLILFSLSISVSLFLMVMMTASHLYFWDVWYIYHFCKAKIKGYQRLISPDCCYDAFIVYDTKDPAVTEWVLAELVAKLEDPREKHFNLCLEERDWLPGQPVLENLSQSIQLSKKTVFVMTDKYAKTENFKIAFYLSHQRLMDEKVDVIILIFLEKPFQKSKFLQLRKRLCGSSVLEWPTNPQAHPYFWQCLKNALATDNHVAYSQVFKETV
- METHOD_SUMMARY: Agonist activity at TLR7 in HEK-Blue hTLR7 cells expressing NF-kappaB/AP-1 inducible SEAP reporter gene using Quanti-blue as substrate preincubated for 20 hrs followed by substrate addition and measured after 1 hr by spectrophotometric analysis
QUANTITY_NAME: EC50 (nM)
Answer in nM, number only, no unit symbol.

# EC50 of CCOCc1nc2c(N)nc(C)c(Sc3ccc(CN(C)C)c(O)c3)c2[nH]1 = 10

Data credit: ChEMBL document CHEMBL6103603
